B1: TPR t1 (parent)
chain: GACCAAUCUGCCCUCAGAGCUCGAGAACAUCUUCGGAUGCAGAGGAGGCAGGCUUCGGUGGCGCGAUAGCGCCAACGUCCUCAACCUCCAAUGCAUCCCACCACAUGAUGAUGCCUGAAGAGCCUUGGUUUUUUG

Variants of: B1
Assay: polymerase ribozyme fitness, log enrichment relative to wild type (log ratio); higher = more active; in vitro selection for triplet polymerase activity
Entries and their polymerase ribozyme fitness (log ratio) values follow.
QUANTITY_NAME: polymerase ribozyme fitness (log ratio)

INSERT INTO measurements (mutation_string, recorded_value) VALUES
  ('C53A G71A C85A', -4.06),
  ('C8G C102U U106C', -0.803),
  ('A16G A27C C72U C123U', -3.64),
  ('C11U U59A A91G A118U', -1.98),
  ('G48C A74U', -0.843),
  ('C64A G117C', -6.03),
  ('C11U C34A U87A', -3.12),
  ('C4U A26G A41U C72U U87G A111C', -4),
  ('C40A U109C C115U', -6.69),
  ('A16G C28U U54G A121G', -0.979),
  ('A2U C12A U55G G61A C102A C104U', -4.56),
  ('C8A G47A C80A U112A', -5.77),
  ('A27G G63A C79U', -1.86),
  ('G63A C123U', 0.883),
  ('G48C G60C G110A', -2.42),
  ('C8A G35C G71A', -5.94),
  ('U55A U81A G107U A111U', -4.76),
  ('A2C C101A U106A C115U A119G', 0.154),
  ('U9G C40U C114G G122A C123G', -5.42),
  ('G10A A37G G61C C85G C86A G113A C124G U130A', -5.79),
  ('A5U G63C', -0.837),
  ('C62A C79A G117C', -6),
  ('G61C G63C G117C U126A G135U', -4.51),
  ('A37G C62A G93U A121G', -3.43),
  ('C49A C79U C114U G120U', -4.69),
  ('C12A C15A', -3.39),
  ('U33G C64U U112G', -6.48),
  ('C11U U54A', -0.542),
  ('G61A U132A', 0.242),
  ('C12A A50C C53U A74C', -0.606),
  ('C8G G69U G107U G113A', -1.04),
  ('C31G A37U C97A U116G', -7.62),
  ('G69A C114G', -4.69),
  ('G45U C82U', -1.52),
  ('C56A C101A', -0.979),
  ('C62A U130A', -1.33),
  ('C62U A108G', -1.69),
  ('G51A G117C', -5.64),
  ('A5U C94U', -1.16),
  ('C20G C40A G58C A121U', -4.66),
  ('C114G G120A G135A', -4.92),
  ('C15G C62G', -5),
  ('G47C G71U', -1.65),
  ('A66C G113C G120U', -5.98);
